System: UO-31
Assay: NCI tumour cell line growth inhibition, 48 h
The source made the active and inactive calls. Cut-off read from the data, not from the text of the source: active = GI50 up to about 1.1 µM and inactive = higher.
property.name: GI50

{"columns": ["compound.string", "property.name", "reported.value"],
 "data": [
  ["COc1ccc(-c2nc(O)c3ccccc3n2)cc1", "GI50", "> 100 µM (inactive)"],
  ["CSc1nc(SC)c2c(C)cn(COCCOC(=O)c3ccccc3)c2n1", "GI50", "44.3 µM (inactive)"],
  ["O=c1[nH]cc(COCC(F)(F)C(F)(F)C(F)(F)C(F)F)c(=O)[nH]1", "GI50", "> 100 µM (inactive)"]
]}

* * *

# maps each entry to its GI50
System: OVCAR-8
Experiment: NCI tumour cell line growth inhibition, 48 h
Calls of active or inactive are those of the source. Cut-off read from the data, not from the text of the source: active = GI50 up to about 1.1 µM and inactive = higher.
property.name: GI50

{"columns": ["compound", "property.name", "reported.value"],
 "data": [
  ["C#CC[C@]12CC(=O)CC[C@H]1CC(=O)C2", "GI50", "> 100 µM (inactive)"],
  ["O=C(CN1c2ccccc2Sc2ccccc21)n1cnc2ccccc21", "GI50", "72.6 µM (inactive)"],
  ["CC(C)(Br)C(=O)/C=C/c1ccccc1", "GI50", "2.13 µM (inactive)"],
  ["CCN(CCCOc1ccccc1)CCN(CC)CCCOc1ccccc1", "GI50", "15.7 µM (inactive)"],
  ["CC(=O)OCC1=C(CCC#N)N2C(=O)C(NC(=O)Cc3cccs3)C2[S+]([O-])C1 (stereo not given)", "GI50", "> 100 µM (inactive)"],
  ["COc1ccc(C(SCCO)(c2ccc(OC)cc2)c2ccc(OC)cc2)cc1", "GI50", "14.9 µM (inactive)"],
  ["NC(=S)Nc1nc(=S)[nH]c2c1SC1=N/C(=C\\c3ccco3)C(=O)N12", "GI50", "> 100 µM (inactive)"],
  ["O=c1cc(CNC2CCCC2)[nH]c(=O)[nH]1", "GI50", "> 100 µM (inactive)"],
  ["COC(=O)Cn1c(=O)oc2nc(-c3ccccc3)cc(C(F)(F)F)c21", "GI50", "18.3 µM (inactive)"],
  ["COc1c2occc2c(N)c2ccc(=O)oc12", "GI50", "> 100 µM (inactive)"],
  ["Cc1cc2c(c(C(=O)NCCC(=O)O)c1)Oc1c(cc(C)cc1C(=O)NCCC(=O)O)S2", "GI50", "> 100 µM (inactive)"],
  ["CC1=C(C(=O)Nc2ccccc2)C2(CCCCC2)C(C#N)=C(SCC(=O)Nc2ccc(Br)cc2)N1", "GI50", "5.58 µM (inactive)"],
  ["Cc1ccccc1NC(=O)CSc1nnc(-c2ccc(/N=C\\c3ccc(Cl)cc3)cc2)o1", "GI50", "> 100 µM (inactive)"],
  ["Cc1ccc(CCCCCOc2ccc(C3=NCCO3)cc2)s1", "GI50", "> 100 µM (inactive)"],
  ["COc1cccc2nc3ccccc3nc12", "GI50", "23.8 µM (inactive)"]
]}

* * *

Test system: DU-145
Assay: NCI tumour cell line growth inhibition, 48 h
The source made the active and inactive calls. Cut-off read from the data, not from the text of the source: active = GI50 up to about 1.1 µM and inactive = higher.
Outcomes: True (active), False (inactive)

{"columns": ["compound", "group"],
 "data": [
  ["COc1ccc2c(c1)c1c(n2CCN2CCOCC2)-c2ccccc2CC1", "False"],
  ["CN(C)c1ccc(/C=C2\\N=C(N/N=C/c3ccccc3O)NC2=O)cc1", "False"],
  ["Cc1nc(O)nc(N/N=C/c2ccc(Cl)cc2)c1C(=O)NC(C)(CO)CO", "False"],
  ["CC(C)C[S+]1C2=C(CC(C)(C)CC2=O)[N-]c2ccccc21 (stereo not drawn)", "False"],
  ["CCOP(=O)(OCC)/C(C#N)=C/c1cccn1C", "False"],
  ["c1ccc2c(c1)-c1ccccc1C2N1CC2CCC(CC2)C1", "False"],
  ["N#CCCSC1SC(=C2SC3=C(SCCS3)S2)SC1SCCC#N (stereo not drawn)", "False"],
  ["O=C1NC2(CCNCC2)Oc2ccccc21", "False"],
  ["Cc1ccc(C[N+](C)(C)N)cc1C", "False"],
  ["CCCCCCCCCCCCOCCCCCCCCC/C=C/c1ccc2c(c1)OCCOCCOCCOCCO2", "False"],
  ["CC[C@H](CO)Nc1nc(NCc2ccccc2)c2ncn(C(C)C)c2n1", "False"],
  ["CC1OC(O)CC(N(C)C)C1O.CC1OC(O)CCC1O.CCC1CC(O)c2c(O)c3c(c(O)c2C1O)C(=O)c1cccc(O)c1C3=O (stereo not drawn)", "True"],
  ["CCOc1ccc(NC(=O)/C=C/c2ccco2)cc1", "False"]
]}
